experiment: Absorption kinetic after oral administration: plasma concentration of BTG 1640; assay type: in vivo, rats Sprague Dawley; conditions: Sprague Dawley, rat, in vivo, po, 10 mg/kg
Structures can show the parent of a compound that is named as a salt.
quantityMeasured: concentration at 5 minutes (ng/mL)
Just the number please, in ng/mL, no unit attached.

// concentration at 5 minutes lookup, compound = CN1OC2CCCC(=O)C2C1Cc1ccccc1 (stereo not shown) [BTG 1640 oxalate] , result: 1870

###

assay: Stability test of BTG 1640 salts under storage conditions: total impurities; assay type: physicochemical; conditions: T = 30° C., humidity 65% RH; time 0 (months)
Where a name gives a salt, the structure may show the parent alone.
quantityMeasured: % impurities
Just the number plus its unit, please.

CN1OC2CCCC(=O)C2C1Cc1ccccc1.O=C(O)/C=C\C(=O)O (centres unmarked) [BTG 1640 maleate] = 0.23%
CN1OC2CCCC(=O)C2C1Cc1ccccc1.CS(=O)(=O)O (centres unmarked) [BTG 1640 methanesulphonate] = 0.42%
CN1OC2CCCC(=O)C2C1Cc1ccccc1.O=C(O)CCC(=O)O (centres unmarked) [BTG 1640 succinate] = 0.77%

// % impurities lookup, compound = CN1OC2CCCC(=O)C2C1Cc1ccccc1.Cl (centres unmarked) [BTG 1640 hydrochloride, reference compound] , result: 0.36%

// % impurities lookup, compound = CN1OC2CCCC(=O)C2C1Cc1ccccc1 (centres unmarked) [BTG 1640 oxalate] , result: 0.27%
